- Test system: LEGO organoid PT (PTEN-/-; TP53-/-)
- assay_details: bioluminescence (viable cell) signal fold change after vs before treatment, normalised to DMSO (ratio); higher = more tumour cell growth / less inhibition
- run_parameters: 10 µM; treatment time 6 days
measurement_type: bioluminescence

* CCc1c2c(nc3ccc(OC(=O)N4CCC(N5CCCCC5)CC4)cc13)-c1cc3c(c(=O)n1C2)COC(=O)[C@]3(O)CC | 2.7
* CCCN[C@H]1CCc2nc(N)sc2C1.Cl.Cl.O [Pramipexole 2HCl Monohydrate] | 1.35
* Cc1nc2n(c(=O)c1CCN1CCC(c3noc4cc(F)ccc34)CC1)CCCC2O (configuration not stated) | 1.4
* O=C1[N-]C(=O)C(c2ccccc2)(c2ccccc2)N1.[Na+] [Phenytoin sodium] | 0.855
* COc1cc(Nc2ncc(F)c(Nc3ccc4c(n3)N(COP(=O)(O)O)C(=O)C(C)(C)O4)n2)cc(OC)c1OC | 0.0894
* CO[C@@H]1[C@H](N(C)C(=O)c2ccccc2)C[C@H]2O[C@]1(C)n1c3ccccc3c3c4c(c5c6ccccc6n2c5c31)C(=O)NC4 | 0.527
* C#Cc1cccc(Nc2ncnc3cc(OCCOC)c(OCCOC)cc23)c1.Cl [Erlotinib hydrochloride] | 1.53

====

- Test system: LEGO organoid PTCC (PTEN-/-; TP53-/-; CDKN2A-/-; CDKN2B-/-)
- assay_details: bioluminescence (viable cell) signal fold change after vs before treatment, normalised to DMSO (ratio); higher = more tumour cell growth / less inhibition
- run_parameters: 10 µM; treatment time 6 days
measurement_type: bioluminescence

• CCC(=O)NCC[C@@H]1CCc2ccc3c(c21)CCO3 [Ramelteon] = 1.56
• CC(C)NCC(O)COc1cccc2ccccc12.Cl (stereo not given) [Propranolol hydrochloride] = 0.672
• Nc1ccn([C@@H]2CS[C@H](CO)O2)c(=O)n1 [Lamivudine] = 0.674
• C[C@]12CC[C@@H]3c4ccc(O)cc4CC[C@H]3[C@@H]1CC[C@@H]2O [Estradiol] = 0.435
• O=C1CCC(N2C(=O)c3ccccc3C2=O)C(=O)N1 (stereo not given) [Thalidomide] = 0.79

====

- System: LEGO organoid PTN (PTEN-/-; TP53-/-; NF1-/-)
- assay_details: bioluminescence (viable cell) signal fold change after vs before treatment, normalised to DMSO (ratio); higher = more tumour cell growth / less inhibition
- run_parameters: 10 µM; treatment time 6 days
If the reported bioluminescence equals or exceeds 1, assign TRUE. If not, assign FALSE.

- CCC(C)n1ncn(-c2ccc(N3CCN(c4ccc(OC[C@H]5CO[C@](Cn6cncn6)(c6ccc(Cl)cc6Cl)O5)cc4)CC3)cc2)c1=O (some centres not stated) [Itraconazole]: TRUE
- CN=C(NC#N)NCCSCc1nc[nH]c1C [Cimetidine]: TRUE
- CCc1cc2c(cc1N1CCC(N3CCOCC3)CC1)C(C)(C)c1[nH]c3cc(C#N)ccc3c1C2=O [Alectinib]: FALSE
- COc1ccc([C@@H]2CC(=O)c3c(O)cc(O[C@@H]4O[C@H](CO[C@@H]5O[C@@H](C)[C@H](O)[C@@H](O)[C@H]5O)[C@@H](O)[C@H](O)[C@H]4O)cc3O2)cc1O [Hesperidin]: TRUE
- CCc1cccc2c3c([nH]c12)C(CC)(CC(=O)O)OCC3 (configuration not stated) [Etodolac]: TRUE
- CO[C@@H]1[C@H](N(C)C(=O)c2ccccc2)C[C@H]2O[C@]1(C)n1c3ccccc3c3c4c(c5c6ccccc6n2c5c31)C(=O)NC4 [Midostaurin]: FALSE
- CCOC(=O)C1=C(C)NC(C)=C(C(=O)OC)C1c1cccc(Cl)c1Cl (configuration not stated) [Felodipine]: TRUE

====

- Test system: LEGO organoid PTCC (PTEN-/-; TP53-/-; CDKN2A-/-; CDKN2B-/-)
- assay_details: bioluminescence (viable cell) signal fold change after vs before treatment, normalised to DMSO (ratio); higher = more tumour cell growth / less inhibition
- run_parameters: 10 µM; treatment time 6 days
If the reported bioluminescence equals or exceeds 1, assign 1.0. If not, assign 0.0.

* COc1cc(C(=O)NCc2ccc(OCCN(C)C)cc2)cc(OC)c1OC.Cl [Trimethobenzamide hydrochloride] | 0.0
* CC(=O)Nc1nnc(S(N)(=O)=O)s1 [Acetazolamide] | 1.0
* Cc1ccccc1C(OCCN(C)C)c1ccccc1.Cl (stereo not given) [Orphenadrine hydrochloride] | 1.0
* N[C@@H](CC(=O)O)C(=O)O [L-Aspartic acid] | 1.0
* COCCOC(=O)C1=C(C)NC(C)=C(C(=O)OC(C)C)C1c1cccc([N+](=O)[O-])c1 (stereo not given) [Nimodipine] | 1.0

====

- Test system: LEGO organoid PTN (PTEN-/-; TP53-/-; NF1-/-)
- assay_details: bioluminescence (viable cell) signal fold change after vs before treatment, normalised to DMSO (ratio); higher = more tumour cell growth / less inhibition
- run_parameters: 10 µM; treatment time 6 days
Counter-ions that a name gives are not always drawn.
Below: a set of entries, each annotated with reported bioluminescence.
measurement_type: bioluminescence

* Cl.CNCC\C=C1\c2ccccc2CCc2ccccc12 [Nortriptyline hydrochloride] | 0.835
* Nc1ncn([C@H]2C[C@H](O)[C@@H](CO)O2)c(=O)n1 [Decitabine] | 1.09
* Cc1[nH]c(=O)c(C#N)cc1-c1ccncc1 [Milrinone] | 1.34
* O=C1CCc2ccc(OCCCCN3CCN(c4cccc(Cl)c4Cl)CC3)cc2N1 [Aripiprazole] | 0.284
* NC(=O)N1c2ccccc2C=Cc2ccccc21 [Carbamazepine] | 1.42
* COCCCC/C(=N\OCCN)c1ccc(C(F)(F)F)cc1.O=C(O)/C=C\C(=O)O [Fluvoxamine maleate] | 1.47
* Cc1oncc1C(=O)Nc1ccc(C(F)(F)F)cc1 [Leflunomide] | 3.5
* COc1cc2ncnc(Nc3ccc(F)c(Cl)c3)c2cc1NC(=O)/C=C/CN1CCCCC1 [Dacomitinib] | 0
* C/C=C(/C)C(=O)O[C@H]1C(C)=C[C@]23C(=O)[C@@H](C=C(CO)[C@@H](O)[C@]12O)[C@H]1[C@@H](C[C@H]3C)C1(C)C [Ingenol Mebutate] | 2.33
* CS(=O)(=O)O.Cc1ccc(NC(=O)c2ccc(CN3CCN(C)CC3)cc2)cc1Nc1nccc(-c2cccnc2)n1 [Imatinib Mesylate] | 2.11
* CCCCCCCCCC(=O)OCCN1CCN(CCCN2c3ccccc3Sc3ccc(C(F)(F)F)cc32)CC1 [Fluphenazine decanoate] | 0.964
* Cl.O[C@@H](c1cc(C(F)(F)F)nc2c(C(F)(F)F)cccc12)[C@H]1CCCCN1 [Mefloquine hydrochloride] | 0.359
* O=C(c1cc(Cc2n[nH]c(=O)c3ccccc23)ccc1F)N1CCN(C(=O)C2CC2)CC1 [Olaparib] | 0.865
* CN(C)CCC[C@@]1(c2ccc(F)cc2)OCc2cc(C#N)ccc21.O=C(O)C(=O)O [Escitalopram Oxalate] | 0.956
* C[C@H]1COc2c(N3CCN(C)CC3)c(F)cc3c(=O)c(C(=O)O)cn1c23 [Levofloxacin] | 0.861
* Cl.NC12CC3CC(CC(C3)C1)C2 [Amantadine hydrochloride] | 3.32
* CC(C(=O)O)c1ccc(-c2ccccc2)c(F)c1 (centres undefined) [Flurbiprofen] | 1.47
* CS(=O)(=O)OCCCCOS(C)(=O)=O [Busulfan] | 2.3
* Nc1nc2c(ncn2COCCO)c(=O)[nH]1 [Aciclovir] | 4.45
* CO/N=C(\C(=O)N[C@@H]1C(=O)N2C(C(=O)[O-])=C(COC(C)=O)CS[C@H]12)c1csc(N)n1.[Na+] [Cefotaxime sodium] | 0.707
* NS(=O)(=O)c1cc2c(cc1Cl)N=CNS2(=O)=O [Chlorothiazide] | 1.33
* C[C@@H]1COCCN1c1cc(C2([S@](C)(=N)=O)CC2)nc(-c2ccnc3[nH]ccc23)n1 [Ceralasertib] | 0.823
* COc1ccc(CNc2nc(N3CCC[C@H]3CO)ncc2C(=O)NCc2ncccn2)cc1Cl [Avanafil] | 1.11
* Cc1ncc([N+](=O)[O-])n1CCO [Metronidazole] | 1.56
* CC(C(=O)O)c1cccc(C(=O)c2ccccc2)c1 (centres undefined) [Ketoprofen] | 1.02
* O=C([O-])Cc1ccccc1Nc1c(Cl)cccc1Cl.[Na+] [Diclofenac sodium] | 1.75
* NC[C@H]1CC[C@H](C(=O)O)CC1 [Amstat] | 0.778
* CCCN[C@H]1CCc2nc(N)sc2C1.Cl.Cl.O [Pramipexole 2HCl Monohydrate] | 0.629
* CO/N=C(\C(=O)N[C@@H]1C(=O)N2C(C(=O)[O-])=C(C[N+]3(C)CCCC3)CS[C@H]12)c1csc(N)n1.Cl.Cl.O [Cefepime Dihydrochloride Monohydrate] | 1.59
* Cc1nc2n(c(=O)c1CCN1CCC(c3noc4cc(F)ccc34)CC1)CCCC2O (centres undefined) [Paliperidone] | 0.593
* O=C1[N-]C(=O)C(c2ccccc2)(c2ccccc2)N1.[Na+] [Phenytoin sodium] | 0.866
* Nc1ccn([C@@H]2CS[C@H](CO)O2)c(=O)n1 [Lamivudine] | 1.2
* COC(=O)/C=C/C(=O)OC [Dimethyl fumarate] | 1.44
* CCCCC1C(=O)N(c2ccccc2)N(c2ccccc2)C1=O [Phenylbutazone] | 2.68
